The measured values listed here are drawn from the supplement of paper PMC10567573.

B1: DYRK1B (parent)
chain: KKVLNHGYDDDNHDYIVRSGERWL

Variants of: B1
Assay Text: protein stability index of a GFP-peptide fusion (GPS, HEK-293T) (PSI 1-6); higher = more stable;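 also: lentivirally expressed fusions sorted by FACS into six bins by GFP to DsRed ratio, PSI derived from sequencing read proportions per bin multiplied by bin number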
Condition Details: c terminus: a fixed tail appended
Values of protein stability index greater than or equal to 3 map to fulfilled; values below map to not fulfilled.

Mutant Label: V17N
Qualitative Label: fulfilled

Mutant Label: W23P
Qualitative Label: fulfilled

Mutant Label: K1D
Qualitative Label: fulfilled

Mutant Label: K2C
Qualitative Label: not fulfilled

Mutant Label: G7P
Qualitative Label: fulfilled

Mutant Label: K2N
Qualitative Label: fulfilled

Dear colleague, could you confirm whether `Y15Q` has protein stability index at or above 3? fulfilled
